Below: a set of entries, each annotated with reported thermal shift delta Tm.
Tested on: LOC_OS01G60700-cb002
Assay: thermal shift delta Tm vs DMSO control; higher = stronger stabilization (binding);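 also: purified Escherichia coli-expressed rice kinase domain construct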
Conditions: 12.5 µM; protein concentration 2 µM
Lab book: enter the figure in °C, no units written.

Recorded thermal shift delta Tm, per entry:
[
  {
    "STRUCTURE_SMILES_STRING": "COc1cc(OC)c(/C=C/S(=O)(=O)Cc2ccc(OC)c(NCC(=O)O)c2)c(OC)c1",
    "thermal shift delta Tm [°C]": 1.27
  },
  {
    "STRUCTURE_SMILES_STRING": "O=C(NOCC1CC1)c1ccc(F)c(F)c1Nc1ccc(I)cc1Cl",
    "thermal shift delta Tm [°C]": 2.16
  },
  {
    "STRUCTURE_SMILES_STRING": "CO[C@@H](C)Cn1c(=O)n(C)c2cnc3ccc(-c4cncc(C(C)(C)O)c4)cc3c21",
    "thermal shift delta Tm [°C]": 1.37
  }
]

Any idea what thermal shift delta Tm came out for COc1cc(Nc2ncc3c(n2)-c2ccc(Cl)cc2C(c2c(F)cccc2OC)=NC3)ccc1C(=O)O on LOC_OS01G60700-cb002?
0.66

Provide the documented thermal shift delta Tm with LOC_OS01G60700-cb002 as the system for COc1cc(OC)cc(-c2cc3cnc(N)nc3nc2NC(=O)NC(C)(C)C)c1
0.16

Give the reported thermal shift delta Tm for Oc1cc(O)cc(/C=C/c2ccc(O)c(O)c2)c1 (system: LOC_OS01G60700-cb002).
1.12

Field: thermal shift delta Tm (LOC_OS01G60700-cb002). Entry: CCS(=O)(=O)c1cccc(-c2cc(C(=O)NC3CCN(C)CC3)c(C)c3[nH]c4ncc(C)cc4c23)c1
0.41

* * *

Tested on: LOC_OS01G39600-cb002
Test: thermal shift delta Tm vs DMSO control; higher = stronger stabilization (binding)
Conditions: 12.5 µM; protein concentration 2 µM
MEASURED_PROPERTY: thermal shift delta Tm (°C)
Report as a plain number; the unit °C is understood.

Past entries and their recorded results:
[
  {
    "COMPOUND": "C=CC(=O)Nc1cccc(Sc2nc(Nc3ccc(N4CCN(C)CC4)cc3)ncc2Cl)c1",
    "SYSTEM_UNDER_TEST": "LOC_OS01G39600-cb002",
    "MEASURED_PROPERTY": "thermal shift delta Tm",
    "SCALE_UNIT": "°C",
    "DATA_VALUE": 6.99
  },
  {
    "COMPOUND": "COc1ccc(-c2ccc3c(N4CCOCC4)nc(N4C[C@@H](C)O[C@@H](C)C4)nc3n2)cc1CO",
    "SYSTEM_UNDER_TEST": "LOC_OS01G39600-cb002",
    "MEASURED_PROPERTY": "thermal shift delta Tm",
    "SCALE_UNIT": "°C",
    "DATA_VALUE": -0.02
  },
  {
    "COMPOUND": "CCc1nc(C(N)=O)c(Nc2ccc(N3CCC(N4CCN(C)CC4)CC3)c(OC)c2)nc1NC1CCOCC1 [Gilteritinib (ASP2215)]",
    "SYSTEM_UNDER_TEST": "LOC_OS01G39600-cb002",
    "MEASURED_PROPERTY": "thermal shift delta Tm",
    "SCALE_UNIT": "°C",
    "DATA_VALUE": 2.87
  },
  {
    "COMPOUND": "CS(=O)(=O)CCNCc1ccc(-c2ccc3ncnc(Nc4ccc(OCc5cccc(F)c5)c(Cl)c4)c3c2)o1",
    "SYSTEM_UNDER_TEST": "LOC_OS01G39600-cb002",
    "MEASURED_PROPERTY": "thermal shift delta Tm",
    "SCALE_UNIT": "°C",
    "DATA_VALUE": 0.33
  },
  {
    "COMPOUND": "COCCNCc1ccc(-c2cc3nccc(Oc4ccc(NC(=O)C5(C(=O)Nc6ccc(F)cc6)CC5)cc4F)c3s2)nc1 [Sitravatinib (MGCD516)]",
    "SYSTEM_UNDER_TEST": "LOC_OS01G39600-cb002",
    "MEASURED_PROPERTY": "thermal shift delta Tm",
    "SCALE_UNIT": "°C",
    "DATA_VALUE": 0.85
  }
]

What value of thermal shift delta Tm has been reported for the following compound? O=C1NCCc2[nH]c(-c3ccncc3)cc21
-0.24

Given the compound CN(C)C/C=C/C(=O)Nc1cc2c(Nc3ccc(F)c(Cl)c3)ncnc2cc1O[C@H]1CCOC1 [Afatinib (BIBW2992)] , what is its reported thermal shift delta Tm?
1.11

thermal shift delta Tm lookup needed for O=C(NCCCNc1nc(Nc2cccc(NC(=O)N3CCCC3)c2)ncc1I)c1cccs1 , thanks.
8.52

Data request, read-out thermal shift delta Tm, for COc1cc(N2CCC(N)CC2)ccc1Nc1ncc(Cl)c(-c2c[nH]c3ccccc23)n1
-2.78
